The reported measurements were obtained from patent US20140056903A1.

target: T1, human GFRα3 expressed with a C-terminal myc-myc-hexahistidine tag (human, UniProt O60609 32-374, biotinylated (sites not given) in ELISA format 2 and in the Octet cross-competition; not in SPR); test: Octet cross-competition; biotin-hGFRα3-mmH pre-saturated with first antibody H4H2236N3
T1 construct: also called hGFRα3-mmh; hGFRα3-mmH
T1 sequence (O60609 other isoform, or with tags, fused parts or gaps limits assumed): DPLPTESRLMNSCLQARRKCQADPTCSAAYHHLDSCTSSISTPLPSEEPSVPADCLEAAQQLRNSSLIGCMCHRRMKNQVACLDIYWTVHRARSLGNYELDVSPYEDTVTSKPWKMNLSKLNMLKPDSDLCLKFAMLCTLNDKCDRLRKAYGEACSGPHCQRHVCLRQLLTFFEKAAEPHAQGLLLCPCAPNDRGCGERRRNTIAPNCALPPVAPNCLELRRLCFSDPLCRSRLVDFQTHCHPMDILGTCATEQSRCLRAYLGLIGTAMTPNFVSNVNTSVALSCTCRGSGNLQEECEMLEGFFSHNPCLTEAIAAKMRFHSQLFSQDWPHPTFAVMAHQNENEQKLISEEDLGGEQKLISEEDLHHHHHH
VALUE TYPE: binding response of second antibody (nm)
Quick reminder: number only, in nm, skip the unit.

{"BINDER": "H4H2350P (antibody, human IgG4, V domains shown, human IgG4 Fc (H4H)) VH: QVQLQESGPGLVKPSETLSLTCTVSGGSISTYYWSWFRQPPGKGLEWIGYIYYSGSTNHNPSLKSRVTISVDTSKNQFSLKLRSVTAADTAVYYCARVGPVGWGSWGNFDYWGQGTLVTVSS VL: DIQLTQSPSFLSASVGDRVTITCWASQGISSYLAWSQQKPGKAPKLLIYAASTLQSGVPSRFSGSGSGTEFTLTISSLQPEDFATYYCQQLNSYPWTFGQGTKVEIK", "VALUE TYPE": "binding response of second antibody (nm)", "MEASURED RESULT": 1.35}
{"BINDER": "H4H2342P (antibody, human IgG4, V domains shown, human IgG4 Fc (H4H)) VH: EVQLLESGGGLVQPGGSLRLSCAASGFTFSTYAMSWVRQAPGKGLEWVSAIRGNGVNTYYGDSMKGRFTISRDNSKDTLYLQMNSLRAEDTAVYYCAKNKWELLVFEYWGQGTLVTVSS VL: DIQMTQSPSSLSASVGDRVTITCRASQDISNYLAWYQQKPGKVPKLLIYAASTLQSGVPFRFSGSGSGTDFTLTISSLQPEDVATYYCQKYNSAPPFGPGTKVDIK", "VALUE TYPE": "binding response of second antibody (nm)", "MEASURED RESULT": -0.01}

# evaluate next
Exercise: Query (binder): H4H2292S (antibody, human IgG4, V domains shown, human IgG4 Fc (H4H)) VH: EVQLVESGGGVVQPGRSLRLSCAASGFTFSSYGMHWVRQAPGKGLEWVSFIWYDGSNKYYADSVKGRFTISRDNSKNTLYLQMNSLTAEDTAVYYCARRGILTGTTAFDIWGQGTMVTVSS VL: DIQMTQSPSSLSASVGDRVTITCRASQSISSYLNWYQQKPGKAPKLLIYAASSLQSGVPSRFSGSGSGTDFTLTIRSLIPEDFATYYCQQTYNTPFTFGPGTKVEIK ; field requested: binding response of second antibody (nm)
Solution: 1.81
